The origin of these recorded values is ChEMBL document CHEMBL4732032.

System: A-431
RUN DESCRIPTION: Cytotoxicity against human A-431 cells expressing EGFR assessed as reduction in cell viability incubated for 72 hrs by MTT assay
Type: functional, cell-based
APPLIED CONDITIONS: A-431, 72 h
Provide the recorded IC50 for the entries that follow.
Form entry: value (µM) — number only.

Lookup: Specify measured IC50 for "CNc1nc(C)c(C(=O)/C=C/c2cccs2)s1" .
Found: 28.5

Lookup: Provide IC50 value for the following compound: "CNc1nc(C)c(C(=O)/C=C/c2ccc(O)cc2)s1"
Found: 8.04
